experimental protocol: Toxicokinetic profiling in rats
Format: in vivo
reported conditions: Sprague-Dawley, rat, plasma, po, 300 mg/kg, 7-times repeated dosing 300 mg/kg, read-out: AUC24
result type: AUC (ng·h/mL)
Express the result in ng·h/mL but write the number alone.

For the compound shown here, O=C1CCC(N2C(=O)c3cccc(NCC(=O)N4CCC(N5CCC(C#Cc6ccc(C7CCN(C8=Nn9c(nnc9C(F)(F)F)CC8)CC7)cc6)CC5)CC4)c3C2=O)C(=O)N1 (stereo not shown) [ITRI-148] , give the reported AUC.
17000

* * *

# pIC50 listing for each entry below
Test system: LNCaP
experimental protocol: MTT cell viability, 7 days
Format: cell-based
reported conditions: Homo sapiens, 168 h
FYI, pIC50 means -log10 of a concentration in mol per litre.

>>> quantitative_readout("O=C1CCC(N2C(=O)c3cccc(NCC(=O)N4CCC(N5CCC(C#Cc6ccc(C7CCN(C8=Nn9c(nnc9C(F)(F)F)CC8)CC7)cc6)CC5)CC4)c3C2=O)C(=O)N1 (centres unmarked)")
6.77

--- query ---
May I ask what pIC50 has been recorded for N#Cc1ccc(O[C@H]2CC[C@H](NC(=O)c3ccc(N4CCC(CN5CCN(c6cc7c(cc6F)C(=O)N(C6CCC(=O)NC6=O)C7=O)CC5)CC4)nn3)CC2)cc1Cl (some centres unmarked) [ARV-110, reference compound] ?
6.13

* * *

experimental protocol: Toxicokinetic profiling in rats
Format: in vivo
reported conditions: Sprague-Dawley, rat, plasma, po, 300 mg/kg, single dosing 300 mg/kg, read-out: AUC24
Method: Repeated-dose toxicity and toxicokinetic studies Repeated-dose oral toxicity study and toxicokinetic (TK) profiling was conducted in Sprague-Dawley rats. […] Clinical observations, body weights, and food consumption were monitored daily throughout the dosing and recovery periods. […] Plasma concentrations of ITRI-148 were quantified using a validated LC-MS/MS method. […] The lower limit of quantification (LLOQ) […] was 5 ng/mL. All samples were analyzed in duplicate. […]
result type: AUC (ng·h/mL)
Supply the numeric figure in ng·h/mL, leaving out any unit text.

Data request, read-out AUC, for O=C1CCC(N2C(=O)c3cccc(NCC(=O)N4CCC(N5CCC(C#Cc6ccc(C7CCN(C8=Nn9c(nnc9C(F)(F)F)CC8)CC7)cc6)CC5)CC4)c3C2=O)C(=O)N1 (stereo not shown) [ITRI-148]
13000

* * *

experimental protocol: Toxicokinetic profiling in rats
Assay type: in vivo
reported conditions: Sprague-Dawley, rat, plasma, po, 600 mg/kg, single dosing 600 mg/kg
result type: Cmax
Show the value, then the unit it is measured in.

Returns the measured Cmax for the input molecule. Input: O=C1CCC(N2C(=O)c3cccc(NCC(=O)N4CCC(N5CCC(C#Cc6ccc(C7CCN(C8=Nn9c(nnc9C(F)(F)F)CC8)CC7)cc6)CC5)CC4)c3C2=O)C(=O)N1 (stereo not shown)
914 ng/mL
